# IC50 per entry for human thrombin (Homo sapiens, UniProt P00734)

>>> df
                                   compound  readout  obs_value
0  CC(C)c1ccc(CCNS(=O)(=O)c2cc(C(=N)N)ccc2O)c(OCC(=O)O)c1     IC50   > 100 µM

Prompt: I'd like to know its IC50. The compound in question is CS(=O)(=O)c1ccccc1-c1ccc(CCNS(=O)(=O)c2cc(C(=N)N)ccc2O)c(OCC(=O)O)c1.Cl [Compound 33, hydrochloride]
Completion: > 100 µM

====

Quick reference for IC50 among some compounds
assayed_target: human activated blood coagulation factor X (Homo sapiens, UniProt P00742)
Construct: purchased Calbiochem
Sequence (P00742 235-488 limits assumed): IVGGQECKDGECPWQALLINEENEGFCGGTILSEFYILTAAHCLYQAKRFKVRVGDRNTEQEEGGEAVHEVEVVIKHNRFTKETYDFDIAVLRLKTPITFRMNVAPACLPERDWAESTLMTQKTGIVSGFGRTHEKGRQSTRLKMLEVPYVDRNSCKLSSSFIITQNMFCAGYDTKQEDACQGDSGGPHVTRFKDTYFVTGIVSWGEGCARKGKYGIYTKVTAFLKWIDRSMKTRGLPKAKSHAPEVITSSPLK
Sequence (P00742 41-179 partner limits assumed): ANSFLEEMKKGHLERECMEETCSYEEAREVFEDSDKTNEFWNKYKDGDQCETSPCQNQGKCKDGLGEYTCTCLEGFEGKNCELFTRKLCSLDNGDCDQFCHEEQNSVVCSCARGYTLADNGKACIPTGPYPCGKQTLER
assay_text: Measurement of inhibitory activity for activated blood coagulation factor X (S-2222 chromogenic substrate)
Format: biochemical
details: S-2222, 10 minutes at 37° C., pH 8.4
Use nM as the unit, but write only the number.

>>> df
                                   compound  readout  obs_value
0  Cc1nc(CN(CCc2ccc(C(C)C)cc2OCC(=O)O)S(=O)(=O)c2cc(C(=N)N)ccc2O)cs1 [Compound 53]     IC50         51
1  CC(C)c1ccc(CCNS(=O)(=O)c2cc(C(=N)N)ccc2O)c(S(N)(=O)=O)c1 [Compound 52]     IC50         16

Prompt: Param readout = IC50; param system = human activated blood coagulation factor X (Homo sapiens, UniProt P00742); param query = CC(C)c1ccc(CCNS(=O)(=O)c2cc(C(=N)N)ccc2O)c(OCC(=O)O)c1 [Compound 42] ; response: value
Completion: 100
